subject.of.test: Oxysterols receptor LXR-alpha (Homo sapiens) (UniProt Q13133)
Sequence (whole entry): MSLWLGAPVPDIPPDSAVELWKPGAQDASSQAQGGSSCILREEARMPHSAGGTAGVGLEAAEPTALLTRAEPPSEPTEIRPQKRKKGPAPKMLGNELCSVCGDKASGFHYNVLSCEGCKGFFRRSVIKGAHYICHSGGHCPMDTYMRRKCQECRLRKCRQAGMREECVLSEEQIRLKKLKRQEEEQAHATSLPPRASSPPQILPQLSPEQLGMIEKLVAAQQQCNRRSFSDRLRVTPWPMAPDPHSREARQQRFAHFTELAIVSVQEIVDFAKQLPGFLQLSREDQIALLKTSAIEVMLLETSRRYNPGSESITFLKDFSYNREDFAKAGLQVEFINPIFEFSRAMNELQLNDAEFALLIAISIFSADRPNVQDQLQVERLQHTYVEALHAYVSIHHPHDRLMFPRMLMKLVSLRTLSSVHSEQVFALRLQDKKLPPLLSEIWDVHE
method: Agonist activity at human full length LXRalpha expressed in […] cells co-expressing human pSG5/RXRalpha at 10 uM after 18 hrs by luciferase reporter gene assay relative to GW3965
Assay type: cell-based
The source made the active and inactive calls. The rule behind the calls is not given here.
# output must be one of True for active, False for inactive

Field: example entries. Status: answers known.
[[record]]
compound_string = "C[C@H](CCC(=O)N(C)C)[C@H]1CC[C@H]2[C@@H]3CC=C4C[C@@H](O)CC[C@]4(C)[C@H]3CC[C@]12C"
subject_of_test = "Oxysterols receptor LXR-alpha (Homo sapiens) (UniProt Q13133)"
category_label = "True"

[[record]]
compound_string = "C[C@H](CCC(=O)N(C)C)[C@H]1CC[C@H]2[C@@H]3CC[C@H]4C[C@@H](O)[C@@H]5C[C@]4(CO5)[C@H]3CC[C@]12C"
subject_of_test = "Oxysterols receptor LXR-alpha (Homo sapiens) (UniProt Q13133)"
category_label = "False"

[[record]]
compound_string = "C[C@H](CCC(=O)N(C)C)[C@H]1CC[C@H]2[C@@H]3C[C@@H]4OC[C@@]5(CC[C@@H](O)C=C45)[C@H]3CC[C@]12C"
subject_of_test = "Oxysterols receptor LXR-alpha (Homo sapiens) (UniProt Q13133)"
category_label = "True"

[[record]]
compound_string = "C[C@H](CCC(=O)N(C)C)[C@H]1CC[C@H]2[C@@H]3CC[C@@H]4C[C@H](O)CC[C@]4(C)[C@H]3CC[C@]12C"
subject_of_test = "Oxysterols receptor LXR-alpha (Homo sapiens) (UniProt Q13133)"
category_label = "True"


Kindly consider the entry below.
Request: Assay result, entry C[C@H](CCC(=O)N(C)C)[C@H]1CC[C@H]2[C@@H]3CC[C@H]4C[C@H](O)[C@@H]5C[C@]4(CO5)[C@H]3CC[C@]12C — outcome?
Result: False

====

subject.of.test: Oxysterols receptor LXR-beta (Homo sapiens)
method: Antagonist activity at human full length LXRbeta expressed in […] cells co-expressing human pSG5/RXRalpha assessed as inhibition of GW3965-induced receptor activation at 10 uM after 18 hrs by luciferase reporter gene assay
Format: cell-based
Activity calls are given as the source filed them. The calls are words filed in the database; no cut-off is given here.
# output must be one of active, inactive

[[record]]
compound_string = "C[C@H](CCC(=O)N(C)C)[C@H]1CC[C@H]2[C@@H]3CC[C@H]4C[C@H](O)[C@@H]5C[C@]4(CO5)[C@H]3CC[C@]12C"
category_label = "active"


Request: Assay result, entry C[C@H](CCC(=O)N(C)C)[C@H]1CC[C@H]2[C@@H]3C[C@H](O)[C@@H]4C[C@H](O)CC[C@]4(C)[C@H]3CC[C@]12C — outcome?
Result: active

Request: Can you handle C[C@H](CCC(=O)N(C)C)[C@H]1CC[C@H]2[C@@H]3CC[C@H]4C[C@@H](O)[C@@H]5C[C@]4(CO5)[C@H]3CC[C@]12C next?
Result: active

Request: Can you handle C[C@H](CCC(=O)N(C)C)[C@H]1CC[C@H]2[C@@H]3CC=C4C[C@@H](O)CC[C@]4(C)[C@H]3CC[C@]12C next?
Result: active

Request: Can you handle C[C@H](CCC(=O)N(C)C)[C@H]1CC[C@H]2[C@@H]3C[C@@H]4OC[C@@]5(CC[C@@H](O)C=C45)[C@H]3CC[C@]12C next?
Result: inactive

====

subject.of.test: Oxysterols receptor LXR-beta (Homo sapiens) (UniProt P55055)
Sequence (whole entry): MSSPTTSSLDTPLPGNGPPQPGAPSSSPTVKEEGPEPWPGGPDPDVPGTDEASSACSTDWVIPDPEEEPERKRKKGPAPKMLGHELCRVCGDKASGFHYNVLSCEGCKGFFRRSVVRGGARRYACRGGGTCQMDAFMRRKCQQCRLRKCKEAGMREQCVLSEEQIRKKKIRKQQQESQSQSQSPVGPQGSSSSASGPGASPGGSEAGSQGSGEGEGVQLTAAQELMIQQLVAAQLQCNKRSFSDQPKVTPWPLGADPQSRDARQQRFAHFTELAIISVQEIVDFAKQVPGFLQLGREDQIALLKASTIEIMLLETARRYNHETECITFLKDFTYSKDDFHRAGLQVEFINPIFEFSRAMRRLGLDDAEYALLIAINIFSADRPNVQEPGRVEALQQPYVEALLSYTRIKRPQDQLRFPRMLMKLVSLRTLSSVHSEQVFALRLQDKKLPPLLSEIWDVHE
method: Agonist activity at human full length LXRbeta expressed in […] cells co-expressing human pSG5/RXRalpha at 10 uM after 18 hrs by luciferase reporter gene assay relative to GW3965
Format: cell-based
Calls of active or inactive are those of the source. No cut-off for these calls is given here.
# output must be one of T for active, F for inactive

Field: example entries. Status: answers known.
[[record]]
compound_string = "C[C@H](CCC(=O)N(C)C)[C@H]1CC[C@H]2[C@@H]3CC=C4C[C@@H](O)CC[C@]4(C)[C@H]3CC[C@]12C"
category_label = "T"

[[record]]
compound_string = "C[C@H](CCC(=O)N(C)C)[C@H]1CC[C@H]2[C@@H]3CC[C@@H]4C[C@H](O)CC[C@]4(C)[C@H]3CC[C@]12C"
category_label = "F"

[[record]]
compound_string = "C[C@H](CCC(=O)N(C)C)[C@H]1CC[C@H]2[C@@H]3CC[C@H]4C[C@H](O)[C@@H]5C[C@]4(CO5)[C@H]3CC[C@]12C"
category_label = "F"

[[record]]
compound_string = "C[C@H](CCC(=O)N(C)C)[C@H]1CC[C@H]2[C@@H]3C[C@H](O)[C@@H]4C[C@H](O)CC[C@]4(C)[C@H]3CC[C@]12C"
category_label = "T"


Kindly consider the entry below.
Request: Assay result, entry C[C@H](CCC(=O)N(C)C)[C@H]1CC[C@H]2[C@@H]3CC[C@H]4C[C@@H](O)[C@@H]5C[C@]4(CO5)[C@H]3CC[C@]12C — outcome?
Result: F
